tested.on: OCT2 (Homo sapiens)
Sequence (O15244 whole entry): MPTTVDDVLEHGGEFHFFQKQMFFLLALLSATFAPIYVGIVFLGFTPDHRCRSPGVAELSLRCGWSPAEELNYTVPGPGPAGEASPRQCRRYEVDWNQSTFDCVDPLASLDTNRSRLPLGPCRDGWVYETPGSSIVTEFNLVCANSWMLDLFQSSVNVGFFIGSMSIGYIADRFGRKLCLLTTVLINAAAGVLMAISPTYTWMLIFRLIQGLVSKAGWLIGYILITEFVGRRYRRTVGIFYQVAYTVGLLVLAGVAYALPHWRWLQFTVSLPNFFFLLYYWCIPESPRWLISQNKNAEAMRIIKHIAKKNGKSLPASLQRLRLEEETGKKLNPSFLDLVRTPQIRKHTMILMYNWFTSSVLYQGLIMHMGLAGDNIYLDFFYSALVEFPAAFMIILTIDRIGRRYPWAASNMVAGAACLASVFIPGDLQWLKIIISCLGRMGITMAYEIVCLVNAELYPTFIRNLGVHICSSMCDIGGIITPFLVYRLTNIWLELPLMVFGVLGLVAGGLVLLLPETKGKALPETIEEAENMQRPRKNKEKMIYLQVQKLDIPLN
measurement.description: Inhibition of OCT2-mediated [14C]metformin uptake in HEK-OCT2 cells
settings: human, pH 7.3, probe [14C]metformin, 1000 µM, % Inhibition of OCT2-dependent MF uptake at 200 µM (mean ± SEM), test drug 200 µM; metformin 1000 μM; 3 min; net uptake HEK-OCT2 minus HEK-VC
outcome.measure: inhibition at 3 min, 200 µM (%)

[[record]]
compound = "COc1nc(C)nc(Cl)c1N=C1NCCN1"
endpoint_value = 86.1

[[record]]
compound = "C[C@]12CCC(=O)C=C1[C@@H]1C[C@@H]1[C@H]1[C@@H]3[C@@H]4C[C@@H]4[C@@]4(CCC(=O)O4)[C@@]3(C)CC[C@@H]12"
endpoint_value = 99.1

[[record]]
compound = "N[C@@H](Cc1cc(I)c(Oc2cc(I)c(O)c(I)c2)c(I)c1)C(=O)O"
endpoint_value = 14.3

[[record]]
compound = "Oc1ncnc2[nH]ncc12"
endpoint_value = 26.8

[[record]]
compound = "CCOc1nc2cccc(C(=O)O)c2n1Cc1ccc(-c2ccccc2-c2nnn[nH]2)cc1"
endpoint_value = 69.7

[[record]]
compound = "O=C1[C@H](CC[C@H](O)c2ccc(F)cc2)[C@@H](c2ccc(O)cc2)N1c1ccc(F)cc1"
endpoint_value = 0.2

[[record]]
compound = "COC(=O)C1=C(C)NC(C)=C(C(=O)OC(C)(C)CN(C)CCC(c2ccccc2)c2ccccc2)C1c1cccc([N+](=O)[O-])c1 (stereo not shown)"
endpoint_value = -20.4

[[record]]
compound = "CCCc1nc(C(C)(C)O)c(C(=O)O)n1Cc1ccc(-c2ccccc2-c2nnn[nH]2)cc1"
endpoint_value = 21.1

[[record]]
compound = "COc1ccc2cccc(CCNC(C)=O)c2c1"
endpoint_value = 95.5

[[record]]
compound = "CCN1CCCC1CNC(=O)c1cc(S(=O)(=O)CC)c(N)cc1OC (stereo not shown) [Amisulpride]"
endpoint_value = 91.7


----------
tested.on: UniProt O15244
measurement.description: Inhibition of OCT2-mediated [3H]MPP+ uptake in HEK-OCT2 cells
settings: human, pH 7.3
// values below are reported inhibition at 3 min, 200 µM
outcome.measure: inhibition at 3 min, 200 µM (%)

[[record]]
molecule = "O=[N+]([O-])O[C@H]1CO[C@H]2[C@@H]1OC[C@H]2O[N+](=O)[O-] [Isosorbide dinitrate]"
tested_on = "UniProt O15244"
outcome_measure = "inhibition at 3 min, 200 µM"
endpoint_value = -82.4

[[record]]
molecule = "CCCCC(=O)N(Cc1ccc(-c2ccccc2-c2nnn[nH]2)cc1)[C@H](C(=O)O)C(C)C"
tested_on = "UniProt O15244"
outcome_measure = "inhibition at 3 min, 200 µM"
endpoint_value = -82.1


----------
The compounds listed here are annotated with their % Inhibition of OCT2-dependent MPP+ uptake at 20 µM (mean ± SEM).
tested.on: OCT2 (Homo sapiens)
measurement.description: Inhibition of OCT2-mediated [3H]MPP+ uptake in HEK-OCT2 cells
settings: test drug 20 µM; MPP+ 50 μM; 3 min; net uptake HEK-OCT2 minus HEK-VC
Experimental: For the transport assays HEK cell lines stably transfected with human OCT2 (HEK-OCT2) or the vector only (HEK-VC) were used. The HEK-OCT2 cell line was established and characterized previously. […] The intracellular accumulation of radioactivity was determined by liquid scintillation counting (PerkinElmer, Rodgau-Jügesheim, Germany) and protein concentration of each lysate was measured with bicinchonic acid assay (BCA Protein Assay Kit, Thermo Fisher Scientific, Waltham, MA, USA). […]
outcome.measure: % Inhibition of OCT2-dependent MPP+ uptake at 20 µM (mean ± SEM) (%)

[[record]]
compound = "CC[C@H](C)C(=O)O[C@H]1C[C@H](O)C=C2C=C[C@H](C)[C@H](CC[C@@H](O)C[C@@H](O)CC(=O)O)[C@H]21"
endpoint_value = -30.2

[[record]]
compound = "Cc1c(OCC(F)(F)F)ccnc1C[S+]([O-])c1nc2ccccc2[nH]1 (centres unmarked)"
endpoint_value = 22.1

[[record]]
compound = "CN(C)CCC=C1c2ccccc2CCc2ccccc21"
endpoint_value = 58.4

[[record]]
compound = "[Li]"
endpoint_value = -28.4

[[record]]
compound = "O=C(CCCN1CCC(n2c(O)nc3ccccc32)CC1)c1ccc(F)cc1"
endpoint_value = -21.5

